Origin of the recorded values: patent US20220112244A1

Measured IC50 in IL-17RA/IL7RC dimerization assay, listed per entry.
biological target: IL-17A (agonist in the IL-17RA/IL17RC dimerization assay) (UniProt Q16552 24-155); assay: cell-based or functional assay
Sequence (Q16552 24-155 limits assumed): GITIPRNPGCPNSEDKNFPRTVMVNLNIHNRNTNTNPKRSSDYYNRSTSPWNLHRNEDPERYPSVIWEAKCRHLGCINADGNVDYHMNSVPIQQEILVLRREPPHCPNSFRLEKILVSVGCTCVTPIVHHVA
No end group written: not given here.
Attribute Measured: IC50 in IL-17RA/IL7RC dimerization assay

• {N‑acetylmuramic acid}-IMVTIPADLYEWIEE [BIO-1] = < 1 µM
• {N‑acetylglucosamine-N‑acetylmuramic acid}-IMVTIPADLYEWIEE [BIO-3] = < 1 µM
• Ac-VHFQFPQEWYNWFRR-NH2 [peptide of SEQ ID NO: 154] = < 0.5 µM
• Ac-VHFTVPQELYEWVRR-NH2 [peptide of SEQ ID NO: 238] = < 10 µM
• Ac-VHFTFPQDFWEWVRR-NH2 [peptide of SEQ ID NO: 125] = < 0.5 µM
• Ac-VMVTIPADLYEWIEERRRRRR-NH2 [peptide of SEQ ID NO: 19] = < 1 µM
• Ac-IHVNIPADLWDWINK-NH2 [peptide of SEQ ID NO: 177] = < 10 µM
